Molecular target: UniProtKB O18531
Sequence (O18531 whole entry, the tested form may be a part): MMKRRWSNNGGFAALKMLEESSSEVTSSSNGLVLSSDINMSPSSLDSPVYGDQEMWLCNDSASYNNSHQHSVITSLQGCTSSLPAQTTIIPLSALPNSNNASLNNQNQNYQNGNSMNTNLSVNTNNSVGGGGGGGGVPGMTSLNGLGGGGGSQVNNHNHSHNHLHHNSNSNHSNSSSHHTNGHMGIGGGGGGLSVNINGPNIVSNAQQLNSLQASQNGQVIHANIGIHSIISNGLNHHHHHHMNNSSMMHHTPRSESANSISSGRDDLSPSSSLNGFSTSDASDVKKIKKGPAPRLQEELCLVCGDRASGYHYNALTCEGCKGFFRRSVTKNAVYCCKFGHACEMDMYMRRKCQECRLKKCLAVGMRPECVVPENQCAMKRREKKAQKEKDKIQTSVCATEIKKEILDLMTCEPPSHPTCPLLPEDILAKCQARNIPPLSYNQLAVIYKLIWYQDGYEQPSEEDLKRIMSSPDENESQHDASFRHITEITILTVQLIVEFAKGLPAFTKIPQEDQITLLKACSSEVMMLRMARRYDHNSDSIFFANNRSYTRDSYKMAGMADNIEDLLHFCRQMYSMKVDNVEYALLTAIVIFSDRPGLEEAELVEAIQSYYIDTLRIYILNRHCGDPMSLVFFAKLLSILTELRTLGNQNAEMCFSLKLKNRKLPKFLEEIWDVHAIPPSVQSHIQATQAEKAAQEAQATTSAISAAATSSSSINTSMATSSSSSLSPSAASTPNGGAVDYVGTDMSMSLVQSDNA
Assay: Binding affinity to Lucilia cuprina recombinant ecdysone receptor ligand binding domain after 3 hrs by fluorescence polarization assay
ENDPOINT_NAME: IC50 (µM)

Worked cases, IC50 given:
q: Recorded IC50 for C=C1C(CCCC)=C(C#N)C(=O)N1c1cc(Cl)ccc1C(C)(C)C with UniProtKB O18531, please?
a: 5.5

q: Recorded IC50 for C=C1C(C)=C(C#N)C(=O)N1c1cc(Cl)c(C(C)(C)C)cc1Cl with UniProtKB O18531, please?
a: 8.5

I = C=C1C(C)=C(C(=O)Nc2cccc(Cl)c2)C(=O)N1c1cccc(Cl)c1
II = C=C1C(CC)=C(C#N)C(=O)N1c1cc(Cl)c(Cl)cc1Cl
q: Decide: I or II , by lowest recorded IC50. Answer = label.
a: II
(II: 7.25 µM, I: 250 µM)

Reference source: ChEMBL document CHEMBL1250461
